- systemUnderTest: UniProtKB Q93ZN9
- Sequence (Q93ZN9 whole entry): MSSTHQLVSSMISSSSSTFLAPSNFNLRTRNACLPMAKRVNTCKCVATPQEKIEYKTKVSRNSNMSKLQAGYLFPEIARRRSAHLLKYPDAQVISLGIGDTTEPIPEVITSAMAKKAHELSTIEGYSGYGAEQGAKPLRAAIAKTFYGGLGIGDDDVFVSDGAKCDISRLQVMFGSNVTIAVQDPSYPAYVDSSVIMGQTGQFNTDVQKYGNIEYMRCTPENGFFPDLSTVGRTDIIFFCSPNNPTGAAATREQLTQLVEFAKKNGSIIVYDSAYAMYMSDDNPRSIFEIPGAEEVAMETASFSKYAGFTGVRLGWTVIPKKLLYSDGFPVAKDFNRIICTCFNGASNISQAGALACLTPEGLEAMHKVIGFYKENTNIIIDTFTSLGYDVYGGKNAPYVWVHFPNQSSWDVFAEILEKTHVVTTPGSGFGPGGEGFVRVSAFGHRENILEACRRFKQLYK
- testMethodNotes: Inhibition of Arabidopsis thaliana LL-DAP-AT expressed in Escherichia coli by aminobenzaldehyde-based assay
- conditionContext: read-out: IC50
Listing: IC50 of selected compounds
API: value field is a number in µM; no unit string.

Worked examples, 2 compounds total:
> print(dat)
                                querysmiles  unitinfo  quantitativereadout
1  CN1C(=O)/C(=C/c2cc3ccccc3n2CC(=O)O)C(=O)N(c2ccc(Cl)cc2)C1=O        µM                   65
2  CCN1C(=O)/C(=C/c2cc(Cc3ccccc3Cl)ccc2O)SC1=S        µM                   46

Please look at the following compound next.
According to the records, this compound COc1ccc(/C=C2\SC(=S)NC2=O)cc1 displays IC50 of 142
